- tgt: T1, soluble human recombinant CD4 expressed in baculovirus (human, UniProt P01730 26-396, limits assumed)
- T1 construct: Coated on plates for the ELISA and covalently immobilised on the sensor for BIAcore; Only called soluble; also called soluble CD4; CD4 expressed in the baculovirus
- experimental-protocol: SPR (BIAcore), CD4 immobilised
- Description: The kinetic parameters of the binding of CD4 to the paratope of the Fab fragments of the 13B8.2 antibody were determined by analysis of the surface plasmon resonance by means of a BIAcore analyzer (BIAcore AB, Uppsala, Sweden).
metric-name: kon (M⁻¹ s⁻¹)
Return type: number; implicit unit M⁻¹ s⁻¹.

-- ask Name the reported kon value associated with the binder mutant Fab W52-H of the 13B8.2 antibody (Fab, V domains shown, Chimeric Fab with human CH1-γ1 and Cκ; baculovirus/Sf9) VH: QVQLKQSGPGLVQPSQSLSITCTVSGFSLTTFGVHWVRQSPGKGLEWLGVIARSGITDYNVPFMSRLSITKDNSKSQVFFKLNSLQPDDTAIYYCAKNDPGTGFAYWGQGTLVTVSA VL: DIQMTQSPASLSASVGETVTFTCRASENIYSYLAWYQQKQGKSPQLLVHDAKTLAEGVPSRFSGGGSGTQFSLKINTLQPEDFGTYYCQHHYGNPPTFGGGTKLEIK
-- reply 237

-- ask And what about the binder mutant Fab W36-H of the 13B8.2 antibody (Fab, V domains shown, Chimeric Fab with human CH1-γ1 and Cκ; baculovirus/Sf9) VH: QVQLKQSGPGLVQPSQSLSITCTVSGFSLTTFGVHAVRQSPGKGLEWLGVIWRSGITDYNVPFMSRLSITKDNSKSQVFFKLNSLQPDDTAIYYCAKNDPGTGFAYWGQGTLVTVSA VL: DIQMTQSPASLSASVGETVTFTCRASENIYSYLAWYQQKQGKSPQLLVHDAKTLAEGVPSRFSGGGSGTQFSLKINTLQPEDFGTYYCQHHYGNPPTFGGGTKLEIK ?
-- reply 17600

-- ask And what about the binder mutant Fab R38-H of the 13B8.2 antibody (Fab, V domains shown, Chimeric Fab with human CH1-γ1 and Cκ; baculovirus/Sf9) VH: QVQLKQSGPGLVQPSQSLSITCTVSGFSLTTFGVHWVAQSPGKGLEWLGVIWRSGITDYNVPFMSRLSITKDNSKSQVFFKLNSLQPDDTAIYYCAKNDPGTGFAYWGQGTLVTVSA VL: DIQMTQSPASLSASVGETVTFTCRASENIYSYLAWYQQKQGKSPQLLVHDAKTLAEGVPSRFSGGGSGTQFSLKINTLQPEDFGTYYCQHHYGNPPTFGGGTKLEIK ?
-- reply 163

-- ask And what about the binder mutant Fab F100K-H of the 13B8.2 antibody (Fab, V domains shown, Chimeric Fab with human CH1-γ1 and Cκ; baculovirus/Sf9) VH: QVQLKQSGPGLVQPSQSLSITCTVSGFSLTTFGVHWVRQSPGKGLEWLGVIWRSGITDYNVPFMSRLSITKDNSKSQVFFKLNSLQPDDTAIYYCAKNDPGTGAAYWGQGTLVTVSA VL: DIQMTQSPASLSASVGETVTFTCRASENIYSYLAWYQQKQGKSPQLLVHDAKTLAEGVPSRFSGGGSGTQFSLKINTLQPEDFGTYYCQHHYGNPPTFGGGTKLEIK ?
-- reply 562

-- ask And what about the binder mutant Fab C92-H of the 13B8.2 antibody (Fab, V domains shown, Chimeric Fab with human CH1-γ1 and Cκ; baculovirus/Sf9) VH: QVQLKQSGPGLVQPSQSLSITCTVSGFSLTTFGVHWVRQSPGKGLEWLGVIWRSGITDYNVPFMSRLSITKDNSKSQVFFKLNSLQPDDTAIYYAAKNDPGTGFAYWGQGTLVTVSA VL: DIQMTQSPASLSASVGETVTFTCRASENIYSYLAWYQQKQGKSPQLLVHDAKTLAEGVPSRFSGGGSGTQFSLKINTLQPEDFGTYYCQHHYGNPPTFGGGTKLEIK ?
-- reply 96100
